Test system: isolated guinea pig hearts
Experiment: coronary flowthrough-increasing effectiveness on isolated guinea pig hearts according to Langendorff
Conditions: Cavia porcellus; 25 μg/ml in tyrode solution, Langendorff heart; read-out: frequency, percentage change in comparison with the initial value
PROPERTY_MEASURED: inhibition at 25 µg/mL (%)
I only need the number, in %, no unit after it.

Can you share its inhibition at 25 µg/mL? I mean this molecule: Nc1ncnc2c1ncn2CCCCCN[C@H]1CO[C@H]2[C@@H]1OC[C@@H]2O[N+](=O)[O-] [Example 16]
6.8

Can you share its inhibition at 25 µg/mL? I mean this molecule: Cn1c(=O)c2c(ncn2CCCCCN[C@H]2CO[C@H]3[C@@H]2OC[C@@H]3O[N+](=O)[O-])n(C)c1=O [Example 4]
8.41

Can you share its inhibition at 25 µg/mL? I mean this molecule: Nc1ncnc2c1ncn2CCCCN[C@H]1CO[C@H]2[C@@H]1OC[C@@H]2O[N+](=O)[O-] [Example 15]
3.45

Can you share its inhibition at 25 µg/mL? I mean this molecule: Cn1c(=O)c2c(ncn2CC(O)CN[C@H]2CO[C@H]3[C@@H]2OC[C@@H]3O[N+](=O)[O-])n(C)c1=O (stereo partly shown) [Example 6]
-3.39

Can you share its inhibition at 25 µg/mL? I mean this molecule: Cn1c(=O)c2c(ncn2CCCN[C@@H]2CO[C@H]3[C@@H]2OC[C@@H]3O[N+](=O)[O-])n(C)c1=O [Example 10c]
5.6

Can you share its inhibition at 25 µg/mL? I mean this molecule: Cn1c(=O)c2c(ncn2CCCCCCN[C@H]2CO[C@H]3[C@@H]2OC[C@@H]3O[N+](=O)[O-])n(C)c1=O [Example 5]
11.1

Can you share its inhibition at 25 µg/mL? I mean this molecule: Cn1c(=O)c2c(ncn2CCCCN[C@H]2CO[C@H]3[C@@H]2OC[C@@H]3O[N+](=O)[O-])n(C)c1=O [Example 3]
4.8

Can you share its inhibition at 25 µg/mL? I mean this molecule: Nc1ncnc2c1ncn2CCCCCCN[C@H]1CO[C@H]2[C@@H]1OC[C@@H]2O[N+](=O)[O-] [Example 17]
3.6

Can you share its inhibition at 25 µg/mL? I mean this molecule: Cn1c(=O)c2c(ncn2CCN[C@H]2CO[C@H]3[C@@H]2OC[C@@H]3O[N+](=O)[O-])n(C)c1=O [Example 2]
-3.5

Can you share its inhibition at 25 µg/mL? I mean this molecule: Cn1c(=O)c2c(ncn2CCCN[C@H]2CO[C@H]3[C@@H]2OC[C@@H]3O[N+](=O)[O-])n(C)c1=O [Example 1d]
1.95

====

What inhibition at 25 µg/mL was measured for each of the following?
System: isolated guinea pig hearts
Assay: coronary flowthrough-increasing effectiveness on isolated guinea pig hearts according to Langendorff
Settings: Cavia porcellus; 25 μg/ml in tyrode solution, Langendorff heart; read-out: inotropism, percentage change in comparison with the initial value
I only need the number, in %, no unit after it.

Can you share its inhibition at 25 µg/mL? I mean this compound: CN(CCCn1cnc2c1c(=O)n(C)c(=O)n2C)[C@H]1CO[C@H]2[C@@H]1OC[C@@H]2O[N+](=O)[O-] [Example 9c]
4.3

Can you share its inhibition at 25 µg/mL? I mean this compound: Nc1ncnc2c1ncn2CCCCN[C@H]1CO[C@H]2[C@@H]1OC[C@@H]2O[N+](=O)[O-] [Example 15]
-3.85

Can you share its inhibition at 25 µg/mL? I mean this compound: Cn1cnc2c1c(=O)n(CCCN[C@H]1CO[C@H]3[C@@H]1OC[C@@H]3O[N+](=O)[O-])c(=O)n2C [Example 7c]
-10.5

Can you share its inhibition at 25 µg/mL? I mean this compound: Nc1ncnc2c1ncn2CCCN[C@H]1CO[C@H]2[C@@H]1OC[C@@H]2O[N+](=O)[O-] [Example 14]
-3.8

Can you share its inhibition at 25 µg/mL? I mean this compound: Cn1c(=O)c2c(ncn2CCN[C@H]2CO[C@H]3[C@@H]2OC[C@@H]3O[N+](=O)[O-])n(C)c1=O [Example 2]
4.6

Can you share its inhibition at 25 µg/mL? I mean this compound: Nc1ncnc2c1ncn2CCCCCCN[C@H]1CO[C@H]2[C@@H]1OC[C@@H]2O[N+](=O)[O-] [Example 17]
11.5

Can you share its inhibition at 25 µg/mL? I mean this compound: Cn1c(=O)c2c(ncn2CCCCCN[C@H]2CO[C@H]3[C@@H]2OC[C@@H]3O[N+](=O)[O-])n(C)c1=O [Example 4]
5.44

Can you share its inhibition at 25 µg/mL? I mean this compound: Cn1c(=O)c2c(ncn2CC(O)CN[C@H]2CO[C@H]3[C@@H]2OC[C@@H]3O[N+](=O)[O-])n(C)c1=O (some centres unmarked) [Example 6]
-4.5

Can you share its inhibition at 25 µg/mL? I mean this compound: Cn1c(=O)c2c(ncn2CCCCN[C@H]2CO[C@H]3[C@@H]2OC[C@@H]3O[N+](=O)[O-])n(C)c1=O [Example 3]
3.82

Can you share its inhibition at 25 µg/mL? I mean this compound: Nc1ncnc2c1ncn2CCN[C@H]1CO[C@H]2[C@@H]1OC[C@@H]2O[N+](=O)[O-] [Example 13]
-2.3

Can you share its inhibition at 25 µg/mL? I mean this compound: Cn1c(=O)c2c(ncn2CCCCCCN[C@H]2CO[C@H]3[C@@H]2OC[C@@H]3O[N+](=O)[O-])n(C)c1=O [Example 5]
43.3

Can you share its inhibition at 25 µg/mL? I mean this compound: Nc1ncnc2c1ncn2CCCCCN[C@H]1CO[C@H]2[C@@H]1OC[C@@H]2O[N+](=O)[O-] [Example 16]
-6.5

Can you share its inhibition at 25 µg/mL? I mean this compound: Cn1c(=O)c2c(ncn2CCCN[C@H]2CO[C@H]3[C@@H]2OC[C@@H]3O[N+](=O)[O-])n(C)c1=O [Example 1d]
1.29

Can you share its inhibition at 25 µg/mL? I mean this compound: Cn1c(=O)c2c(ncn2CCCN[C@@H]2CO[C@H]3[C@@H]2OC[C@@H]3O[N+](=O)[O-])n(C)c1=O [Example 10c]
6.4
